Item-by-item account of relative growth
Test system: Arthrobacter 2 (Arthrobacter humicola)
METHOD SUMMARY: relative growth (AUC of 72 h growth curve relative to DMSO control, dAUC) (ratio); higher = more growth (less inhibition), active = hit call of the paper
CONDITION: 20 µM
Reply briefly: the number, and no unit.

Study these solved cases before continuing.
Retrieve relative growth measured for CCc1cccc(C)c1N(C(=O)CCl)[C@@H](C)COC and print it.
0.89

Retrieve relative growth measured for COCC(=O)N(c1c(C)cccc1C)C(C)C(=O)OC (stereo not drawn) and print it.
0.862

Retrieve relative growth measured for CCCC(Cn1cncn1)c1ccc(Cl)cc1Cl (stereo not drawn) and print it.
1.02

Retrieve relative growth measured for CO/N=C(/C(=O)OC)c1ccccc1CO/N=C(\C)c1cccc(C(F)(F)F)c1 and print it.
0.876

Retrieve relative growth measured for Clc1ccc(C(c2ccc(Cl)cc2)C(Cl)(Cl)Cl)cc1 and print it.
0.211

Further cases:
Retrieve relative growth measured for C[N+]1(C)CCCCC1 and print it.
0.96

Retrieve relative growth measured for N#CCNC(=O)c1cnccc1C(F)(F)F and print it.
0.882

Retrieve relative growth measured for O=[N+]([O-])/N=C1\NCCN1Cc1ccc(Cl)nc1 and print it.
1.06

Retrieve relative growth measured for CCOc1ccc(C(C)(C)COCc2cccc(Oc3ccccc3)c2)cc1 and print it.
0.801

Retrieve relative growth measured for CC(C)N(C)S(=O)(=O)NC(=O)c1cc(-n2c(=O)cc(C(F)(F)F)n(C)c2=O)c(F)cc1Cl and print it.
1.01

---

Item-by-item account of relative growth
Test system: Pseudomonas 5 (Pseudomonas baetica)
METHOD SUMMARY: relative growth (AUC of 72 h growth curve relative to DMSO control, dAUC) (ratio); higher = more growth (less inhibition), active = hit call of the paper
CONDITION: 20 µM
Reply briefly: the number, and no unit.

Retrieve relative growth measured for COC(=O)Nc1nc2ccccc2[nH]1 and print it.
1.05

Retrieve relative growth measured for COP(N)(=O)SC (centres undefined) and print it.
1.1

Further cases:
Retrieve relative growth measured for CN/C(=N/CC1CCOC1)N[N+](=O)[O-] (centres undefined) and print it.
0.992

Retrieve relative growth measured for O=C(Nc1ccccc1-c1ccc(Cl)cc1)c1cccnc1Cl and print it.
0.998

Retrieve relative growth measured for OC(Cc1ccccc1Cl)(Cn1nc[nH]c1=S)C1(Cl)CC1 (centres undefined) and print it.
0.995

Retrieve relative growth measured for N#CC(CCc1ccc(Cl)cc1)(Cn1cncn1)c1ccccc1 (centres undefined) and print it.
0.932

Retrieve relative growth measured for CC1(C)[C@H](/C=C(\Cl)C(F)(F)F)[C@@H]1C(=O)OC(C#N)c1cccc(Oc2ccccc2)c1 (some centres undefined) and print it.
1.08

Retrieve relative growth measured for CC(C)N1C(=O)c2ccccc2NS1(=O)=O and print it.
1.01

Retrieve relative growth measured for CC(C1CC1)C(O)(Cn1cncn1)c1ccc(Cl)cc1 (centres undefined) and print it.
0.986

---

Item-by-item account of relative growth
Test system: Bacillus 1 (Bacillus foraminis)
METHOD SUMMARY: relative growth (AUC of 72 h growth curve relative to DMSO control, dAUC) (ratio); higher = more growth (less inhibition), active = hit call of the paper
CONDITION: 20 µM
Reply briefly: the number, and no unit.

Study these solved cases before continuing.
Retrieve relative growth measured for CC(Oc1ccc(Oc2ncc(C(F)(F)F)cc2Cl)cc1)C(=O)O (stereo not drawn) and print it.
1

Retrieve relative growth measured for CNC(=O)ON=C(C)SC and print it.
0.996

Retrieve relative growth measured for Nc1c([N+](=O)[O-])ccc(Oc2ccccc2)c1Cl and print it.
1.02

Retrieve relative growth measured for COC(=O)N(C(=O)N1CO[C@@]2(C(=O)OC)Cc3cc(Cl)ccc3C2=N1)c1ccc(OC(F)(F)F)cc1 and print it.
1

Retrieve relative growth measured for CN1COCN(Cc2cnc(Cl)s2)/C1=N\[N+](=O)[O-] and print it.
1.02

Further cases:
Retrieve relative growth measured for CCNc1nc(Cl)nc(NC(C)C)n1 and print it.
0.997

Retrieve relative growth measured for Cc1ccc(/N=C/N(C)/C=N/c2ccc(C)cc2C)c(C)c1 and print it.
1.01

Retrieve relative growth measured for CC1(C(=O)Nc2ccc(O)c(Cl)c2Cl)CCCCC1 and print it.
1.01

---

Item-by-item account of relative growth
Tested on: Microbacterium 1 (Microbacterium arborescens)
METHOD SUMMARY: relative growth (AUC of 72 h growth curve relative to DMSO control, dAUC) (ratio); higher = more growth (less inhibition), active = hit call of the paper
CONDITION: 20 µM
Reply briefly: the number, and no unit.

Retrieve relative growth measured for CC1(C(=O)Nc2ccc(O)c(Cl)c2Cl)CCCCC1 and print it.
0.995

Retrieve relative growth measured for CCc1nn(C)c(C(=O)NCc2ccc(Oc3ccc(C)cc3)cc2)c1Cl and print it.
1.02

Further cases:
Retrieve relative growth measured for CN1COCN(Cc2cnc(Cl)s2)/C1=N\[N+](=O)[O-] and print it.
0.974

Retrieve relative growth measured for CC(C)(C)[C@@H](O)[C@H](Oc1ccc(Cl)cc1)n1cncn1 and print it.
0.963

---

System: Arthrobacter 3 (Arthrobacter sp.)
METHOD SUMMARY: relative growth (AUC of 72 h growth curve relative to DMSO control, dAUC) (ratio); higher = more growth (less inhibition), active = hit call of the paper;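 active = growth AUC significantly below the DMSO wells by Dunnett test; inactive = the rest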
CONDITION: 20 µM
Thanks in advance; please answer with one of these: active, inactive

Answer briefly: the call reported for COP(=S)(OC)Oc1ccc(SC)c(C)c1 in this assay.
inactive

Answer briefly: the call reported for CNC(=O)CSP(=S)(OC)OC in this assay.
inactive

Answer briefly: the call reported for O=C1C2CC=CCC2C(=O)N1SC(Cl)(Cl)Cl (stereo not drawn) in this assay.
inactive

Further cases:
Answer briefly: the call reported for CCCCc1c(C)nc(NCC)nc1OS(=O)(=O)N(C)C in this assay.
inactive

Answer briefly: the call reported for CC(C1CC1)C(O)(Cn1cncn1)c1ccc(Cl)cc1 (stereo not drawn) in this assay.
inactive

---

Test system: Flavobacterium 2 (Flavobacterium succinicans)
METHOD SUMMARY: relative growth (AUC of 72 h growth curve relative to DMSO control, dAUC) (ratio); higher = more growth (less inhibition), active = hit call of the paper
CONDITION: 20 µM
Item-by-item account of relative growth
Reply briefly: the number, and no unit.

Retrieve relative growth measured for COCC(C)N(C(=O)CCl)c1c(C)csc1C (centres undefined) and print it.
1.01

Further cases:
Retrieve relative growth measured for CCC(C)(C)C(=O)OC1=C(c2ccc(Cl)cc2Cl)C(=O)OC12CCCCC2 and print it.
1.02

Retrieve relative growth measured for COc1cc(C)c(C(=O)c2c(OC)ccc(Br)c2C)c(OC)c1OC and print it.
1.02

Retrieve relative growth measured for CN1COCN(Cc2cnc(Cl)s2)/C1=N\[N+](=O)[O-] and print it.
0.975

---

System: Pseudomonas 4 (Pseudomonas peli)
METHOD SUMMARY: relative growth (AUC of 72 h growth curve relative to DMSO control, dAUC) (ratio); higher = more growth (less inhibition), active = hit call of the paper;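 active = growth AUC significantly below the DMSO wells by Dunnett test; inactive = the rest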
CONDITION: 20 µM
Thanks in advance; please answer with one of these: YES = active, NO = inactive

Answer briefly: the call reported for C[C@@H]1[C@@H](c2ccc(Cl)cc2)SC(=O)N1C(=O)NC1CCCCC1 in this assay.
NO

Answer briefly: the call reported for CC[C@H]1CCC[C@H](O[C@H]2CC[C@H](N(C)C)[C@@H](C)O2)[C@@H](C)C(=O)C2=C[C@@H]3[C@@H](C=C(C)[C@@H]4C[C@@H](O[C@@H]5O[C@@H](C)[C@H](OC)[C@@H](OC)[C@H]5OC)C[C@@H]34)[C@@H]2CC(=O)O1.CC[C@H]1CCC[C@H](O[C@H]2CC[C@H](N(C)C)[C@@H](C)O2)[C@@H](C)C(=O)C2=C[C@H]3[C@@H]4C[C@H](O[C@@H]5O[C@@H](C)[C@H](OC)[C@@H](OC)[C@H]5OC)C[C@H]4C=C[C@H]3C2CC(=O)O1 in this assay.
NO

Answer briefly: the call reported for CSc1nc(NC(C)C)nc(NC(C)C)n1 in this assay.
NO

Answer briefly: the call reported for N#CC(CCc1ccc(Cl)cc1)(Cn1cncn1)c1ccccc1 (centres undefined) in this assay.
NO

Answer briefly: the call reported for C/C(=N\C#N)N(C)Cc1ccc(Cl)nc1 in this assay.
NO

Further cases:
Answer briefly: the call reported for O=[N+]([O-])c1cc(C(F)(F)F)c(Cl)c([N+](=O)[O-])c1Nc1ncc(C(F)(F)F)cc1Cl in this assay.
YES

Answer briefly: the call reported for CCCCC(C#N)(Cn1cncn1)c1ccc(Cl)cc1 (centres undefined) in this assay.
NO

---

Tested on: Pseudomonas 1 (Pseudomonas baetica)
METHOD SUMMARY: relative growth (AUC of 72 h growth curve relative to DMSO control, dAUC) (ratio); higher = more growth (less inhibition), active = hit call of the paper;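 active = growth AUC significantly below the DMSO wells by Dunnett test; inactive = the rest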
CONDITION: 20 µM
Thanks in advance; please answer with one of these: True for active, False for inactive

Answer briefly: the call reported for CC(C)NC(=O)N1CC(=O)N(c2cc(Cl)cc(Cl)c2)C1=O in this assay.
False

Further cases:
Answer briefly: the call reported for Nc1c([N+](=O)[O-])ccc(Oc2ccccc2)c1Cl in this assay.
False

Answer briefly: the call reported for Oc1ccccc1-c1ccccc1 in this assay.
False

Answer briefly: the call reported for CCOc1cc(Oc2ccc(C(F)(F)F)cc2Cl)ccc1[N+](=O)[O-] in this assay.
False
